Assay System: human full-length kindlin-2, from Sf9 insect cells (monomer) (human) (UniProt Q96AC1)
Sequence (Q96AC1 whole entry): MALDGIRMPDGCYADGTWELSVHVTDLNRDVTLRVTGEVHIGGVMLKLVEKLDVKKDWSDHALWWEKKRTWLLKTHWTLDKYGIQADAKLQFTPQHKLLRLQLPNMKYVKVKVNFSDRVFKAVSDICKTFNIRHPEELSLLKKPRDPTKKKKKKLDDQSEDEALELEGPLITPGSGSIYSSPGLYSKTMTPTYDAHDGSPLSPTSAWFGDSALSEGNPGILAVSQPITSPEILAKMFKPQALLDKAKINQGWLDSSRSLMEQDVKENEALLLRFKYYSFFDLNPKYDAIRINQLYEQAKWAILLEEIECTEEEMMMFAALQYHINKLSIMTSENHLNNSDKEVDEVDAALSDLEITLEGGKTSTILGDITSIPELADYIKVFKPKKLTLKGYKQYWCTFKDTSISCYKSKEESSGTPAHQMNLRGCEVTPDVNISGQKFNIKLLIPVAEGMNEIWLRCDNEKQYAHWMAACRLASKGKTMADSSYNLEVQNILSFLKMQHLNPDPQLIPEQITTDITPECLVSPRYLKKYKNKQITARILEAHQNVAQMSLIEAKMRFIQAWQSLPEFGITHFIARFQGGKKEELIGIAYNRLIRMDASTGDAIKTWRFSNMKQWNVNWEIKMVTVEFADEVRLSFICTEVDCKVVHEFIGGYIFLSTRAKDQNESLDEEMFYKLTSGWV
Procedure Summary: ITC; MicroCal PEAQ-ITC, 25 °C, 50 mM HEPES pH 7.5, 150 mM NaCl; 500 μM ITGB1 tail injected into 50 μM monomer or trimer kindlin
Assay Endpoint: Kd (µM)
One number for each entry, in µM.

Query: Any idea what its Kd is? The binder is AKWDTGENPIYKSAVTTVVNPKYEGK (domain or fragment, UniProt P05556-1 773-798, looked up, integrin beta-1, human, cytoplasmic tail residues 773-798; pNH-TrxT, N-terminal cleavable 6xHis thioredoxin tag; no cleavage step is described and the ITC control was the His-Trx tag alone, so the tag was probably kept (surmise); also called ITGB1 tail; integrin β1 tail) [human integrin β1 cytoplasmic tail (ITGB1 residues 773–798)]
Response: 13.4
